- Test system: HCV replicon (Genotype 1b)
- method notes: Luciferase genotype 1b replicon potency assay
- setup conditions: Hepatitis C virus, GETYPE1B, read-out: IC50 μM, HCV genotype 1b luciferase replicon, Renilla luciferase reporter
Recorded IC50 for the following compounds

compound	target entity	modifier sign	IC50 [µM]
CCOc1nc(N)nc2c1ncn2C1O[C@H](COP(=O)(N[C@H](C(=O)OCC(C)(C)C)C(C)C)Oc2cccc3ccccc23)[C@@H](O)[C@@]1(C)O (stereo partly drawn) [Example 79]	HCV replicon (Genotype 1b)	=	0.22
COc1nc(N)nc2c1ncn2C1O[C@H](COP(=O)(N[C@H](C(=O)OCc2ccccc2)C(C)C)Oc2cccc3ccccc23)[C@@H](O)[C@@]1(C)O (stereo partly drawn) [Example 36]	HCV replicon (Genotype 1b)	=	0.09
COc1nc(N)nc2c1ncn2C1O[C@H](COP(=O)(N[C@@H](C)C(=O)OCC(C)(C)C)Oc2cccc3ncccc23)[C@@H](O)[C@@]1(C)O (stereo partly drawn) [Example 31]	HCV replicon (Genotype 1b)	=	0.19
COc1nc(N)nc2c1ncn2C1O[C@H](COP(=O)(N[C@@H](C)C(=O)O[C@@H](C)c2ccccc2)Oc2cccc3ccccc23)C[C@@]1(C)O (stereo partly drawn) [Example 96]	HCV replicon (Genotype 1b)	>	10
CNc1nc(N)nc2c1ncn2C1O[C@H](CO)[C@@H](O)[C@@]1(C)O (stereo partly drawn) [Example 80]	HCV replicon (Genotype 1b)	=	13
CCOc1nc(N)nc2c1ncn2C1O[C@H](COP(=O)(N[C@@H](C)C(=O)OCc2ccccc2)Oc2cccc3ccccc23)[C@@H](O)[C@@]1(C)O (stereo partly drawn) [Example 73]	HCV replicon (Genotype 1b)	=	0.037

----------
- Tested on: HCV replicon (Genotype 1b)
- method notes: Luciferase genotype 1b replicon potency assay
- setup conditions: Hepatitis C virus, GETYPE1B, read-out: IC50 μM, HCV genotype 1b luciferase replicon, Renilla luciferase reporter
Response field label: string, one of yes (IC50 strictly below 0.1 µM) or no.

compound	target entity	category label
COc1nc(N)nc2c1ncn2C1O[C@H](COP(=O)(N[C@H](C(=O)OCC2CC2)C(C)C)Oc2cccc3ccccc23)[C@@H](O)[C@@]1(C)O (some centres unmarked)	HCV replicon (Genotype 1b)	no
CNc1nc(N)nc2c1ncn2[C@@H]1O[C@H](COP(=O)(N[C@@H](C)C(=O)OCC(C)(C)C)Oc2ccc3ncccc3c2)[C@@H](O)[C@@]1(C)O (some centres unmarked)	HCV replicon (Genotype 1b)	no
COc1nc(N)nc2c1ncn2C1O[C@H](COP(=O)(N[C@H](C(=O)OC2CCCC2)C(C)C)Oc2cccc3ccccc23)[C@@H](O)[C@@]1(C)O (some centres unmarked)	HCV replicon (Genotype 1b)	no
COc1nc(N)nc2c1ncn2C1O[C@H](COP(=O)(N[C@@H](C)C(=O)OCc2ccc(F)cc2F)Oc2cccc3ccccc23)[C@@H](O)[C@@]1(C)O (some centres unmarked)	HCV replicon (Genotype 1b)	yes
COc1nc(N)nc2c1ncn2C1O[C@H](CO[P@](=O)(N[C@@H](C)C(=O)OCC(C)(C)C)Oc2cccc3ccccc23)[C@@H](O)[C@@]1(C)O (single isomer, unassigned)	HCV replicon (Genotype 1b)	yes
COC(=O)[C@@H](C)c1ccc2cc(OP(=O)(N[C@@H](C)C(=O)OC3CCOCC3)OC[C@H]3OC(n4cnc5c(OC)nc(N)nc54)[C@](C)(O)[C@@H]3O)ccc2c1 (some centres unmarked)	HCV replicon (Genotype 1b)	no
COc1nc(N)nc2c1ncn2C1O[C@H](COP(=O)(N[C@H](C(=O)OC2CCCCC2)C(C)C)Oc2cccc3ccccc23)[C@@H](O)[C@@]1(C)O (some centres unmarked)	HCV replicon (Genotype 1b)	no
CNc1nc(N)nc2c1ncn2C1O[C@H](COP(=O)(N[C@@H](C)C(=O)O[C@@H](C)c2ccccc2)Oc2cccc3ccccc23)[C@@H](O)[C@@]1(C)O (some centres unmarked)	HCV replicon (Genotype 1b)	no
COc1nc(N)nc2c1ncn2C1O[C@H](COP(=O)(N[C@H](C(=O)OCC(C)(C)C)C(C)C)Oc2ccc3ncccc3c2)[C@@H](O)[C@@]1(C)O (some centres unmarked)	HCV replicon (Genotype 1b)	no
COc1nc(N)nc2c1ncn2C1O[C@H](COP(=O)(N[C@@H](C)C(=O)OC2CCOCC2)Oc2ccc3ncccc3c2)[C@@H](O)[C@@]1(C)O (some centres unmarked)	HCV replicon (Genotype 1b)	no
CCOc1nc(N)nc2c1ncn2C1O[C@H](COP(=O)(N[C@@H](C)C(=O)OC(C)C)Oc2cccc3ccccc23)[C@@H](O)[C@@]1(C)O (some centres unmarked)	HCV replicon (Genotype 1b)	no
